This collection of values is drawn from patent US20250066503A1.

target: T1, human GPC3 (human, UniProt P51654 25-563); test: SPR
T1 construct: range 25-563; soluble analyte; also called soluble human GPC3; glypican 3
T1 sequence (P51654 25-563 limits assumed): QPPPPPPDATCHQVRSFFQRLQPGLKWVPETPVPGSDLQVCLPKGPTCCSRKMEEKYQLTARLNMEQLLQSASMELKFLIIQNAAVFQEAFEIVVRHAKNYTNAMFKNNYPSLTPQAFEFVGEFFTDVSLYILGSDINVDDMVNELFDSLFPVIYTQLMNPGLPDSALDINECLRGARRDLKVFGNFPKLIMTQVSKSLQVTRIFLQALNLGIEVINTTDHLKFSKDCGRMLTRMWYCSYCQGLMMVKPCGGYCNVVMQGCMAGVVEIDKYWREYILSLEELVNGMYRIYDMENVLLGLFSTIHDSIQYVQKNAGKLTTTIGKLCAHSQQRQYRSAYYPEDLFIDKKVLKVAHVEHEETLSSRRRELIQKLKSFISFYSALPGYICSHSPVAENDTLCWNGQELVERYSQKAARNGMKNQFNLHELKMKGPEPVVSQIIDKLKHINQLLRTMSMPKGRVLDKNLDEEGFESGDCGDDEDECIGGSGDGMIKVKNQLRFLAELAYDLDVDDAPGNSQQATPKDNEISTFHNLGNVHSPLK
Examples of binders with documented log10 of Kd follow.
PROPERTY: log10 of Kd (log10 of the value in nM)

# BINDER, log10 of Kd
rows = [
    ("GCH054-G1dh/none-Hi-Kn010G3/L0262-k0 (antibody, V domains shown, one-arm) VH: QVQLVQSGAEVKKPGASVTVSCKASGYTFTDYEMHWIRQPPGEGLEWIGAIDGETPDTAYSEKFKGRVTLTADKSTSTAYMELSSLTSEDTAVYYCTRFYSYTYWGQGTLVTVSS VL: DIVMTQSPLSLPVTPGEPASISCRSSQPPVHSNRNTYLHWYQQKPGQAPRLLIYKVSNRFSGVPDRFSGSGSGTDFTLKISRVEAEDVGVYYCAQGTQVPYTFGQGTKLEIK", -3.28),
    ("GCH073-G1dh/none-Hi-Kn010G3/L0201-k0 (antibody, V domains shown, one-arm) VH: QVQLVQSGAEVKKPGASVTVSCKASGYTFTDYEMHWIRQPPGEGLEWIGAIDGPTPDTAYSQKFEGRVTLTADKSTSTAYMELSSLTSEDTAVYYCTRFYSYTYWGQGTLVTVSS VL: DIVMTQSPLSLPVTPGEPASISCRSSQPPVHSNRNTYLHWYQQKPGQAPRLLIYKVSNRFSGVPDRFSGSGSGTDFTLKISRVEAEDVGVYYCGQGTQVPYTFGQGTKLEIKR", -1.46),
    ("GCH053-G1dh/none-Hi-Kn010G3/L0000-k0 (antibody, V domains shown, one-arm) VH: QVQLVQSGAEVKKPGASVTVSCKASGYTFTDYEMHWIRQPPGEGLEWIGAIDGETPDTAYEQKFKGRVTLTADKSTSTAYMELSSLTSEDTAVYYCTRFYSYTYWGQGTLVTVSS VL: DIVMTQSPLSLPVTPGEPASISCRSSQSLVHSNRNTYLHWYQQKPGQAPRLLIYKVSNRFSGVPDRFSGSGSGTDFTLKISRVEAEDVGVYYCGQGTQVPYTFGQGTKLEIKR", 0.61),
    ("GCH045-G1dh/none-Hi-Kn010G3/L0000-k0 (antibody, V domains shown, one-arm) VH: QVQLVQSGAEVKKPGASVKVSCKASGYTFTDYEMHWIRQPPGQGLEWIGAIDGKTPDTAYSQKFKGRVTLTADKSTSTAYMELSSLTSEDTAEYYCTRFYSYTYWGQGTLVTVSS VL: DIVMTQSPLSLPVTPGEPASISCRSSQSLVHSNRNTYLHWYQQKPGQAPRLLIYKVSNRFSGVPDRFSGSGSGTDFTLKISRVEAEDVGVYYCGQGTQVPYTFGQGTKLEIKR", 0.67),
    ("GCH054-G1dh/none-Hi-Kn010G3/L0249-k0 (antibody, V domains shown, one-arm) VH: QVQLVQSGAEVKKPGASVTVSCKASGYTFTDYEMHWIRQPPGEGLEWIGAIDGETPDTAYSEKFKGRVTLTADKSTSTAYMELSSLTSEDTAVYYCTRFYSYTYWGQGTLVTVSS VL: DIVMTQSPLSLPVTPGEPASISCRPSQSPVHSNRNTYIQWYQQKPGQAPRLLIYKVSNRFSGVPDRFSGSGSGTDFTLKISRVEAEDVGVYYCSQGTQVPYTFGQGTKLEIK", -2.44),
    ("H0610-G1dh/none-Hi-Kn010G3/L0148-k0 (antibody, V domains shown, one-arm) VH: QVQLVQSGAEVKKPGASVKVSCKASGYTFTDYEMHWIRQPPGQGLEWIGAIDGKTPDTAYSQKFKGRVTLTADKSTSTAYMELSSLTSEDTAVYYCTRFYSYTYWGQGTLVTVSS VL: DIVMTQSPLSLPVTPGEPASISCRSSQSLVHSNRNTYLHWYQQKPGQAPRLLIYKVSNRFWGVPDRFSGSGSGTDFTLKISRVEAEDVGVYYCGQGTQVPYTFGQGTKLEIK", 0.52),
    ("GCH067-G1dh/none-Hi-Kn010G3/L0000-k0 (antibody, V domains shown, one-arm) VH: QVQLVQSGAEVKKPGASVTVSCKASGYTFTDYEMHWIRQPPGEGLEWIGAIDGYTPDTAYSEKFKGRVTLTADKSTSTAYMELSSLTSEDTAVYYCTRFYSYTYWGQGTLVTVSS VL: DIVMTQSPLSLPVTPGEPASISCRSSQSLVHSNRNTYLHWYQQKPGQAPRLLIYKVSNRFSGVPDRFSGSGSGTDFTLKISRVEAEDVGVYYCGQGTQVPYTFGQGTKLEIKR", 0.72),
    ("H0610-G1dh/none-Hi-Kn010G3/L0269-k0 (antibody, V domains shown, one-arm) VH: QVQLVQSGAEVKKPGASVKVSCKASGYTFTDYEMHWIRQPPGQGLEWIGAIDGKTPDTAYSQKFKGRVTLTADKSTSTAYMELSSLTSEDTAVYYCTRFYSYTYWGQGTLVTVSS VL: DIVMTQSPLSLPVTPGEPASISCRSSQSPVHSNRNTYIQWYQQKPGQAPRLLIYKVSNRFSGVPDRFSGSGSGTDFTLKISRVEAEDVGVYYCGQGTQVPYTFGQGTKLEIK", -0.34),
    ("H0610-G1dh/none-Hi-Kn010G3/L0109-k0 (antibody, V domains shown, one-arm) VH: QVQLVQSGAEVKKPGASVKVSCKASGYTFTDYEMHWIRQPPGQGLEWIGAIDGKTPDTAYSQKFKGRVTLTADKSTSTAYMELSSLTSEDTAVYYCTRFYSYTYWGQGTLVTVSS VL: DIVMTQSPLSLPVTPGEPASISCRSSQSLVHSNRNTYLHWYQQKPGQAPRLLIYKVSMRFSGVPDRFSGSGSGTDFTLKISRVEAEDVGVYYCGQGTQVPYTFGQGTKLEIK", 0.76),
    ("GCH014-G1dh/none-Hi-Kn010G3/L0000-k0 (antibody, V domains shown, one-arm) VH: QVQLVQSGAEVKKPGASVKVSCKASGYTFTDYEMHWIRQPPGEGLEWIGAIDGKTPDTAYEQKFKGRVTLTADKSTSTAYMELSSLTSEDTAVYYCTRFYSYTYWGQGTLVTVSS VL: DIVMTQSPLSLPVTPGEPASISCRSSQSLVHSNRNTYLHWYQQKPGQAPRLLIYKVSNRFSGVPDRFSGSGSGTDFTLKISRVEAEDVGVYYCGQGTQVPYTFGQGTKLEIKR", 0.62),
]
